Where these numbers come from: PubChem BioAssay AID463173

Tested on: Wild type
Test: S. aureus survival, RN4220 and DeltatarO strains – OD600, teichoic acid synthesis inhibitors, primary screen (AID 463173)
Details: S. aureus RN4220 wild type/DeltatarO growth, OD600, 18 h, active compounds read low, screened at 18.75 µg/mL (by protocol)
About 1,700 (3.3%) of roughly 52,000 compounds were called active. For the sample, actives were picked, then their nearest neighbours and some compounds at random.
# note: exactly 70% is not below, so it is -1; use 1 for survival strictly under it

// below: answered molecules
[[record]]
molecule = "Cc1ccccc1CS(=O)(=O)Cc1ccc(C(=O)NCCc2ccc(Cl)cc2)o1"
answer_label = -1

[[record]]
molecule = "O=C(CCSCc1cccc(Cl)c1)NCCc1ccc(Cl)cc1"
answer_label = 1

[[record]]
molecule = "O=C(NCc1ccc(F)cc1)c1cc(-c2ccc(Cl)cc2)n[nH]1"
answer_label = -1

[[record]]
molecule = "Cc1ccc(CNC(=O)CCSCc2ccccc2F)cc1"
answer_label = -1

[[record]]
molecule = "O=C(NCCc1ccc(Cl)cc1)c1ccc(CS(=O)(=O)Cc2ccccc2F)o1"
answer_label = 1

[[record]]
molecule = "CC(=O)N1CCc2cc(S(=O)(=O)NC(CC(C)C)C(=O)NCCc3cccc(C)c3)ccc21 (configuration not stated)"
answer_label = -1


Decide: survival of `CC(C)c1ccc(NC(=O)CN2C(=O)COc3ccc(S(=O)(=O)N4CCCCCC4)cc32)cc1` strictly below 70%? -1

Report whether reported survival is lower than 70% (strictly) for `Cc1ccc(CCNC(=O)CCSCc2ccccc2F)cc1` 1

====

Tested on: Wild type
Test: S. aureus survival, RN4220 and DeltatarO strains – OD600, teichoic acid synthesis inhibitors, primary screen (AID 463173)
Settings: S. aureus RN4220 wild type/DeltatarO growth, OD600, 18 h, screened at 18.75 µg/mL (by protocol)
The campaign covered roughly 52,000 compounds. About 1,700 (3.3%) were called active. Rule as the data show it: active = survival mostly below about 52% (no sharp cut-off); inactive = mostly above about 56%. The entries come from a sample that favours actives as a whole.
Respond with a class label; see active, inactive

The examples below pair each entry with its known result.
[[record]]
compound = "COc1cc(NC(=O)CNC(=O)Cn2ccc3ccccc3c2=O)cc(OC)c1OC"
measured_target = "Wild type"
answer_label = "inactive"

[[record]]
compound = "O=C(/C=C/c1ccc(Cl)cc1)Nc1nc(-c2cccs2)ns1"
measured_target = "Wild type"
answer_label = "inactive"

[[record]]
compound = "COc1ccc(N=Nc2c(N)n[nH]c2N)cc1"
measured_target = "Wild type"
answer_label = "active"

[[record]]
compound = "CCOc1ccc(CN2C(=O)c3ccccc3Sc3ccc(C(=O)NC)cc32)cc1"
measured_target = "Wild type"
answer_label = "inactive"


Please state the recorded outcome for this compound: `Fc1ccc(-n2ncc3c(N4CCCCCC4)ncnc32)cc1` inactive

How was `Cc1cccc(-c2nc3c4ccccc4nc(NCc4ccc(Cl)cc4)n3n2)c1` classified in this test? inactive

Please share the test call associated with COc1ccc(NC(=O)CC2C(=O)N(c3ccccc3)C(=O)N2C2CCCCC2)cc1 (stereo not given) . inactive

Write down the call the test reported for this compound. Item: `CCOc1ccc(CCNC(=O)c2nn(-c3ccc(OC)c(Cl)c3)c(=O)c3c2c2ccccc2n3C)cc1OCC` inactive

How did this test come out for `COc1ccc2sc(N)nc2c1` ? inactive

Please let me know the test result on file for `CCCCNC(=O)c1cc(-c2ccc(OC)cc2)nc2n[nH]c(-c3cccc([N+](=O)[O-])c3)c12` . inactive

====

Test system: Wild type
Assay: S. aureus survival, RN4220 and DeltatarO strains – OD600, teichoic acid synthesis inhibitors, primary screen (AID 463173)
Details: S. aureus RN4220 wild type/DeltatarO growth, OD600, 18 h, active compounds read low, screened at 18.75 µg/mL (by protocol)
The whole screen tested about 52,000 compounds, of which about 1,700 (3.3%) were called active. Many of the other results were omitted from the sample, so actives are more common in it than they were.
Reported property: survival (%)
Answers are plain numbers, in %.

Value sought for every listed compound: survival.
1. CCc1ccc(CNC(=O)CCn2nc(C)c3c(C)n(-c4ccccc4)nc3c2=O)cc1
2. O=C(Nc1cccc(C(=O)N2CCCCC2)c1)c1nsc2ccccc12
3. O=C(CN1C(=O)COc2ccc(S(=O)(=O)N3CCOCC3)cc21)NCc1ccc(Cl)cc1
4. CCCCn1cc(S(=O)(=O)c2cc(C)ccc2C)c(=O)c2cc(F)c(F)cc21
5. O=C1CC(c2nnc(Cc3cccc(Cl)c3)o2)CN1c1ccccc1 (stereo not given)

1: 65; 2: 65; 3: 78; 4: 83; 5: 113

====

Test system: Wild type
Assay: S. aureus survival, RN4220 and DeltatarO strains – OD600, teichoic acid synthesis inhibitors, primary screen (AID 463173)
Conditions: S. aureus RN4220 wild type/DeltatarO growth, OD600, 18 h, screened at 18.75 µg/mL (by protocol)
Among all 52,000 compounds or so, about 1,700 (3.3%) were called active. Rule as the data show it: active = survival mostly below about 52% (no sharp cut-off); inactive = mostly above about 56%. The entries come from a sample that favours actives as a whole.
Hi! Could you answer with just one of these? active, inactive

See these solved cases before continuing.
[[record]]
compound = "O=C(CSc1nnc(-c2ccccc2)c(-c2ccccc2)n1)Nc1ccccc1Cl"
measured_target = "Wild type"
answer_label = "inactive"

[[record]]
compound = "COc1ccc(OC)c(CNCc2c(C(=O)O)n(Cc3cccc(F)c3)c3cc(OC)ccc23)c1"
measured_target = "Wild type"
answer_label = "active"


For this compound, state the assay outcome: `CCSc1oc(-c2ccco2)nc1S(=O)(=O)c1ccc(Br)cc1` inactive

Just curious, what result did `Cc1ccc(S(=O)(=O)c2nc(-c3ccco3)oc2SCC(C)C)cc1` get here? inactive

Hi, sorry to bother you, what did the test record for `COc1ccc(NC(=O)C2CCN(S(=O)(=O)c3c(C)noc3/C=C/c3ccco3)CC2)cc1` ? inactive

Hi team, can someone confirm the assay call for `Cc1cc(SCC(=O)NCc2ccccc2)nc(=O)[nH]1` ? inactive

====

Test system: Wild type
Experiment: S. aureus survival, RN4220 and DeltatarO strains – OD600, teichoic acid synthesis inhibitors, primary screen (AID 463173)
Settings: S. aureus RN4220 wild type/DeltatarO growth, OD600, 18 h, active compounds read low, screened at 18.75 µg/mL (by protocol)
About 1,700 (3.3%) of roughly 52,000 compounds were called active. The sample as a whole holds a higher share of actives than the screen did.
Lab note: compare survival with 60%, writing true if less and false if equal or more.

Some solved entries appear below for comparison.
[[record]]
chemical_string = "CCOC(=O)c1cc(S(=O)(=O)Nc2cc(C)c(Cl)cc2OC)[nH]n1"
answer_label = "false"

[[record]]
chemical_string = "CCN(CC)CCn1c(-c2ccccc2)csc1=Nc1ccccc1"
answer_label = "true"

[[record]]
chemical_string = "O=S(=O)(c1ccc(-c2csc(=Nc3ccc(F)cc3)n2CCCCCCO)cc1)N1CCCC1"
answer_label = "true"

[[record]]
chemical_string = "COc1ccc(-c2csc(=Nc3ccccc3)n2CCO)cc1F"
answer_label = "false"


# ---- query compound ----
Bench note: check whether `Cc1ccc(-c2cn3c(n2)sc2cc(C(=O)NCCC4=CCCCC4)ccc23)c(C)c1` shows survival below 60% false

====

System: Wild type
Assay: S. aureus survival, RN4220 and DeltatarO strains – OD600, teichoic acid synthesis inhibitors, primary screen (AID 463173)
Conditions: S. aureus RN4220 wild type/DeltatarO growth, OD600, 18 h, active compounds read low, screened at 18.75 µg/mL (by protocol)
Out of some 52,000 compounds screened, about 1,700 (3.3%) were called active. The entries come from a sample that favours actives as a whole.
Reported property: survival (%)
Numbers only, in %.

[[record]]
compound = "CC1CCCCN1CCCNC(=O)c1[nH]c2ccccc2c1Sc1ccc(Cl)cc1 (stereo unspecified)"
observed_result = -1


Give survival for each listed item.
1. CCCCNC(=O)c1[nH]c2ccccc2c1Sc1ccc(C)cc1
2. Cc1cccc(N2CCN(c3nc4ccccc4c4nnc(C)n34)CC2)c1C
3. COc1ccc(-c2nc3ccccc3n2Cc2ccc(Cl)cc2)cc1
4. CC1CCCCN1CCCNC(=O)c1cc(Sc2cccc(Cl)c2)nc2ccccc12 (stereo unspecified)
5. CN(C(=O)Cn1cc(S(=O)(=O)Cc2ccccc2Cl)c2ccccc21)c1ccccc1

1: 83; 2: 98; 3: 4; 4: 54; 5: 146

====

System: Wild type
Experiment: S. aureus survival, RN4220 and DeltatarO strains – OD600, teichoic acid synthesis inhibitors, primary screen (AID 463173)
Conditions: S. aureus RN4220 wild type/DeltatarO growth, OD600, 18 h, active compounds read low, screened at 18.75 µg/mL (by protocol)
Screen size: about 52,000 compounds; about 1,700 (3.3%) were called active. The entries come from a sample that favours actives as a whole.
Please go through the items and note down their survival.

In the examples that follow, each entry is paired with its recorded survival.
[[record]]
molecule = "O=C(C1CCN(S(=O)(=O)c2ccccc2)CC1)N1CCCCC1"
reported_property = "survival"
observed_result = "96% (inactive)"

[[record]]
molecule = "COc1ccccc1CNC(=O)c1ccc(CN2CC(=O)N3CCCCC3C2=O)cc1 (stereo unspecified)"
reported_property = "survival"
observed_result = "72% (inactive)"

[[record]]
molecule = "COc1ccc(C2=C(Nc3ccc(C)c(C)c3)c3ccccc3C2=O)cc1"
reported_property = "survival"
observed_result = "90% (inactive)"

[[record]]
molecule = "COc1ccc(N2C(=O)CSC23C(=O)N(Cc2ccccc2F)c2ccccc23)cc1Cl (stereo unspecified)"
reported_property = "survival"
observed_result = "68% (inactive)"

[[record]]
molecule = "O=C(Nc1nc2c(s1)CCCCCC2)Nc1ccc(F)cc1F"
reported_property = "survival"
observed_result = "-2% (active)"

[[record]]
molecule = "O=C(Nc1ccc(Br)cc1)Nc1nc2c(s1)CCCCCC2"
reported_property = "survival"
observed_result = "82% (inactive)"

[[record]]
molecule = "CCOC(=O)c1noc2nc(C)n(CC(=O)Nc3ccccc3F)c(=O)c12"
reported_property = "survival"
observed_result = "124% (inactive)"

[[record]]
molecule = "COc1ccc(C2=C(Nc3ccc(C)cc3C)c3ccccc3C2=O)cc1"
reported_property = "survival"
observed_result = "76% (inactive)"

[[record]]
molecule = "COc1cc(CN(C(=O)Nc2ccccc2)c2ccccn2)cc(OC)c1OC"
reported_property = "survival"
observed_result = "86% (inactive)"

[[record]]
molecule = "Cc1ccc(NC(=O)Nc2nc3c(s2)CCCCCC3)cc1C"
reported_property = "survival"
observed_result = "69% (inactive)"


Value lookup for survival; key = `COc1ccc(CCNC(=O)c2cc(-c3ccc(C)cc3)nc3n[nH]c(-c4ccc(F)cc4)c23)cc1OC` 136% (inactive)
